Record form. Attribute: % inhibition of CsA binding to Cyclophilin A. Fill in for each entry.
Biological target: Cyclophilin A (Homo sapiens)
Construct: made in house
Sequence (P62937 whole entry, species assumed): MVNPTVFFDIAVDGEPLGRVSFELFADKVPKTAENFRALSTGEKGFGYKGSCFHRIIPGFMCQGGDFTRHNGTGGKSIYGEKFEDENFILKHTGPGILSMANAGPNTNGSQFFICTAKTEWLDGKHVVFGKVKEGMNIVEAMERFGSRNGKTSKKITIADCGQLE
Experiment: AlphaLISA inhibition of binding of biotinylated Cyclosporin A to FLAG tagged Cyclophilin A
Conditions: test concentration not given
Description: The binding of compounds of the invention to Cyclophilin A can be determined using the following protocol. […] Add 20 uL of 6 nM Biotinylated CsA working stock to each well of the 96-well plate. […] Protect plate from light until reading on Biotek Synergy2 Plate Reader; Alphalisa 96-well protocol (680 excitation/615 emission).
Where a SMILES comes first, the peptide text is derived from it. [ ]: non-standard residue; d: D form. MeBmt = C/C=C/C[C@@H](C)[C@@H](O)[C@H](NC)C(=O)O; NMeF = CN[C@@H](Cc1ccccc1)C(=O)O; NMeI = CC[C@H](C)[C@H](NC)C(=O)O; NMeT = CN[C@H](C(=O)O)[C@@H](C)O; NMeL = CN[C@@H](CC(C)C)C(=O)O; dNMeV = CN[C@@H](C(=O)O)C(C)C; NMeNle = CCCC[C@H](NC)C(=O)O; NMeV = CN[C@H](C(=O)O)C(C)C; NMeA = CN[C@@H](C)C(=O)O; Abu = CC[C@H](N)C(=O)O; Sar = CNCC(=O)O
# unit: % | format: bare number

Prompt: Which measured % inhibition of CsA binding to Cyclophilin A value corresponds to C/C=C/C[C@@H](C)[C@@H](O)[C@H]1C(=O)N[C@@H](CC)C(=O)N(C)CC(=O)N(C)[C@@H]([C@@H](C)O)C(=O)N[C@@H](C(C)C)C(=O)N(C)[C@@H](CC(C)C)C(=O)N[C@@H](CC)C(=O)N[C@H](C)C(=O)N(C)[C@@H](CC(C)C)C(=O)N(C)[C@@H](CC(C)C)C(=O)N(C)[C@@H](C(C)C)C(=O)N1C [Compound C99] (cyclo([Abu][Sar][NMeT]V[NMeL][Abu][dA][NMeL][NMeL][NMeV][MeBmt])) ?
Completion: 97.41

Prompt: Which measured % inhibition of CsA binding to Cyclophilin A value corresponds to C/C=C/C[C@@H](C)[C@@H](O)[C@H]1C(=O)N[C@@H](CC)C(=O)N(C)CC(=O)N(C)[C@@H](CC(C)C)C(=O)N[C@@H](C(C)C)C(=O)N(C)[C@@H](CC(C)C)C(=O)N[C@@H](CC(C)C)C(=O)N[C@H](C)C(=O)N(C)[C@@H](CC(C)C)C(=O)N(C)[C@@H](CC(C)C)C(=O)N(C)[C@@H](C(C)C)C(=O)N1C [Compound C50] ?
Completion: 93.94

Prompt: Which measured % inhibition of CsA binding to Cyclophilin A value corresponds to C/C=C/C[C@@H](C)[C@@H](O)[C@H]1C(=O)N[C@@H](CC)C(=O)N(C)CC(=O)N(C)[C@@H]([C@@H](C)O)C(=O)N[C@@H](C(C)C)C(=O)N(C)[C@@H](CC(C)C)C(=O)N[C@@H](C)C(=O)N[C@H](C)C(=O)N(C)[C@@H](CC(C)C)C(=O)N(C)[C@@H](CC(C)C)C(=O)N(C)[C@@H](C(C)C)C(=O)N1C [Compound C38] ?
Completion: 98.43

Prompt: Which measured % inhibition of CsA binding to Cyclophilin A value corresponds to C/C=C/C[C@@H](C)[C@@H](O)[C@H]1C(=O)N[C@@H](CC)C(=O)N(C)CC(=O)N(C)[C@@H](Cc2ccccc2)C(=O)N[C@@H](C(C)C)C(=O)N(C)[C@@H](CC(C)C)C(=O)N[C@@H](CC)C(=O)N[C@H](C)C(=O)N(C)[C@@H](CC(C)C)C(=O)N(C)[C@@H](CC(C)C)C(=O)N(C)[C@@H](C(C)C)C(=O)N1C [Compound C96] (cyclo([Abu][Sar][NMeF]V[NMeL][Abu][dA][NMeL][NMeL][NMeV][MeBmt])) ?
Completion: 95.00

Prompt: Which measured % inhibition of CsA binding to Cyclophilin A value corresponds to C/C=C/C[C@@H](C)[C@@H](O)[C@H]1C(=O)N[C@@H](CC)C(=O)N(C)CC(=O)N(C)[C@@H](CCCC)C(=O)N[C@@H](C(C)C)C(=O)N(C)[C@@H](CC(C)C)C(=O)N[C@@H](CC)C(=O)N[C@H](C)C(=O)N(C)[C@@H](CC(C)C)C(=O)N(C)[C@@H](CC(C)C)C(=O)N(C)[C@@H](C(C)C)C(=O)N1C [Compound C104] ?
Completion: 99.01

Prompt: Which measured % inhibition of CsA binding to Cyclophilin A value corresponds to C/C=C/C[C@@H](C)[C@@H](O)[C@H]1C(=O)N[C@@H](CC)C(=O)N(C)CC(=O)N(C)[C@H](C(C)C)C(=O)N[C@@H](CC(C)C)C(=O)N(C)[C@@H](CC(C)C)C(=O)N[C@@H](CC(C)C)C(=O)N[C@H](C)C(=O)N(C)[C@@H](CC(C)C)C(=O)N(C)[C@@H](CC(C)C)C(=O)N(C)[C@@H](C(C)C)C(=O)N1C [Compound C67] (cyclo([MeBmt][Abu][Sar][dNMeV]L[NMeL]L[dA][NMeL][NMeL][NMeV])) ?
Completion: 59.14

Prompt: Which measured % inhibition of CsA binding to Cyclophilin A value corresponds to C/C=C/C[C@@H](C)[C@@H](O)[C@H]1C(=O)N[C@@H](CC)C(=O)N(C)CC(=O)N(C)CC(=O)N[C@@H](C(C)C)C(=O)N(C)[C@@H](CC(C)C)C(=O)N[C@@H](C)C(=O)N[C@H](C)C(=O)N(C)[C@@H](CC(C)C)C(=O)N(C)[C@@H](CC(C)C)C(=O)N(C)[C@@H](C(C)C)C(=O)N1C [Compound C37] ?
Completion: 98.44

Prompt: Which measured % inhibition of CsA binding to Cyclophilin A value corresponds to C/C=C/C[C@@H](C)[C@@H](O)[C@H]1C(=O)N[C@@H](CC)C(=O)N(C)CC(=O)N(C)[C@@H](CCCC)C(=O)N[C@@H](C(C)C)C(=O)N(C)[C@@H](C)C(=O)N[C@@H](CC(C)C)C(=O)N[C@H](C)C(=O)N(C)[C@@H](CC(C)C)C(=O)N(C)[C@@H](CC(C)C)C(=O)N(C)[C@@H](C(C)C)C(=O)N1C [Compound C92] (cyclo([Abu][Sar][NMeNle]V[NMeA]L[dA][NMeL][NMeL][NMeV][MeBmt])) ?
Completion: 91.00

Prompt: Which measured % inhibition of CsA binding to Cyclophilin A value corresponds to C/C=C/C[C@@H](C)[C@@H](O)[C@H]1C(=O)N[C@@H](CC)C(=O)N(C)CC(=O)N(C)[C@@H](CC(C)C)C(=O)N[C@@H](C(C)C)C(=O)N(C)[C@@H](CC(C)C)C(=O)N[C@@H](CC)C(=O)N[C@H](C)C(=O)N(C)[C@@H](CC(C)C)C(=O)N(C)[C@@H](CC(C)C)C(=O)N(C)[C@@H](C(C)C)C(=O)N1C [Compound C98] ?
Completion: 95.30

Prompt: Which measured % inhibition of CsA binding to Cyclophilin A value corresponds to C/C=C/C[C@@H](C)[C@@H](O)[C@H]1C(=O)N[C@@H](CC)C(=O)N(C)CC(=O)N(C)[C@@H]([C@@H](C)CC)C(=O)N[C@@H](CC(C)C)C(=O)N(C)[C@@H](C)C(=O)N[C@@H](C)C(=O)N[C@H](C)C(=O)N(C)[C@@H](CC(C)C)C(=O)N(C)[C@@H](CC(C)C)C(=O)N(C)[C@@H](C(C)C)C(=O)N1C [Compound C9] (cyclo([MeBmt][Abu][Sar][NMeI]L[NMeA]A[dA][NMeL][NMeL][NMeV])) ?
Completion: 99.89
